# PROCEDURE SUMMARY: Cytotoxicity in XTT-based cell viability assay
# CONDITION: human, CEM-SS T cells
ASSAY ENDPOINT: CC50 (µM)
Numbers only, in µM.

{"MOLECULE SMILES": "Oc1ccc(-c2ccc3ccccc3c2)cc1O", "VALUE UNIT": "µM", "CC50": 26}

The following compounds each have a reported value; give each one's CC50.
1. O=c1[nH]c(-c2ccc(O)c(O)c2)nc2cc(Cl)ccc12
2. O=c1[nH]c(-c2ccc(O)c(O)c2)nc2ccc(Cl)cc12
3. O=c1[nH]c(-c2ccc(O)c(O)c2)nc2ccc(I)cc12

1. 6
2. 22
3. 17

Any idea what its CC50 is? The compound is Cc1ccc2c(=O)[nH]c(-c3ccc(O)c(O)c3)nc2c1
25

###

# EXPERIMENTAL SYSTEM: HIV-1 IN in the presence of LEDGF/p75 (Human immunodeficiency virus type 1 group M subtype B)
# Construct: made in house
# PROCEDURE SUMMARY: HTRF IN LEDGF/p75-dependent assay
# Assay type: biochemical
Class key for IC50 values: 1 (below 4 µM), 2 (4 µM to below 8 µM), 3 (8 µM or more)

Worked cases, answers included:
{"COMPOUND": "O=c1[nH]c(-c2ccc(O)c(O)c2)nc2cc3ccccc3cc12 [Compound 7]", "DISCRETE LABEL": 3}
{"COMPOUND": "COc1cc2nc(-c3ccc(O)c(O)c3)[nH]c(=O)c2cc1OC [Compound 5]", "DISCRETE LABEL": 2}
{"COMPOUND": "O=c1[nH]c(-c2ccc(O)c(O)c2)nc2ccccc12 [Compound 17]", "DISCRETE LABEL": 1}
{"COMPOUND": "Cc1ccc2nc(-c3ccc(O)c(O)c3)[nH]c(=O)c2c1 [Compound 2]", "DISCRETE LABEL": 2}
{"COMPOUND": "COc1ccc2nc(-c3ccc(O)c(O)c3)[nH]c(=O)c2c1 [Compound 4]", "DISCRETE LABEL": 3}
{"COMPOUND": "O=c1[nH]c(-c2ccc(O)c(O)c2)nc2ccc(Br)cc12 [Compound 9]", "DISCRETE LABEL": 2}
{"COMPOUND": "O=c1[nH]c(-c2ccc(O)c(O)c2)nc2ccc(F)cc12 [Compound 12]", "DISCRETE LABEL": 2}
{"COMPOUND": "O=c1[nH]c(-c2ccc(O)c(O)c2)nc2ccc(Cl)cc12 [Compound 10]", "DISCRETE LABEL": 1}

Into which bin does this compound go? O=c1[nH]c(-c2ccc(O)c(O)c2)nc2ccc([N+](=O)[O-])cc12 [Compound 13]
3

Into which bin does this compound go? O=c1[nH]c(-c2ccc(O)c(O)c2)nc2ccc(-c3ccccc3)cc12 [Compound 6]
3

Into which bin does this compound go? O=c1[nH]c(-c2ccc(O)c(O)c2)nc2ccc(I)cc12 [Compound 8]
1

###

Give measured IC50 for each item. Keep answers brief.
# EXPERIMENTAL SYSTEM: HIV-1 RT-associated RDDP (Human immunodeficiency virus type 1 group M subtype B, UniProt P04585)
# Construct: dynamics at the p66/p51 HIV-1 RT-RNase H dimer interface; made in house
# PROCEDURE SUMMARY: HIV-1 RNA-dependent DNA polymerase activity determination
# Format: biochemical
# CONDITION: wt RT, poly(A)-oligo(dT)
Give bare numbers, in µM.

Example cases with answers are listed next.
{"MOLECULE SMILES": "O=c1[nH]c(-c2ccc(O)c(O)c2)nc2ccc(-c3ccccc3)cc12", "IC50 (µM)": 63}
{"MOLECULE SMILES": "Cc1ccc2c(=O)[nH]c(-c3ccc(O)c(O)c3)nc2c1", "IC50 (µM)": 60}

Attention now turns to another entry.
Any idea what its IC50 is? The molecule is O=c1[nH]c(-c2ccc(O)c(O)c2)nc2ncccc12
38

###

Give measured IC50 for each item. Keep answers brief.
# EXPERIMENTAL SYSTEM: wt HIV-1 RT-associated RNase H (Human immunodeficiency virus type 1 group M subtype B)
# Construct: dynamics at the p66/p51 HIV-1 RT-RNase H dimer interface; made in house
# PROCEDURE SUMMARY: RNase H inhibitor analysis, wild type RT (fluorescent RNA/DNA hybrid)
# Format: biochemical
# CONDITION: wild type RT

{"COMPOUND": "O=C(O)c1ccc(-c2nc3ccccc3c(=O)[nH]2)cc1O [Compound 18]", "ENDPOINT VALUE": "13.6 µM"}

The following compounds each have a reported value; give each one's IC50.
1. O=c1[nH]c(-c2ccc([N+](=O)[O-])c(O)c2)nc2ccccc12 [Compound 21]
2. Cc1ccc2c(=O)[nH]c(-c3ccc(O)c(O)c3)nc2c1 [Compound 3]

["> 50 µM", "0.5 µM"]

The following compounds each have a reported value; give each one's IC50.
1. O=c1[nH]c(-c2ccc(O)c(O)c2)nc2ccc([N+](=O)[O-])cc12 [Compound 13]
2. COc1ccc2nc(-c3ccc(O)c(O)c3)[nH]c(=O)c2c1 [Compound 4]

0.31 µM
0.57 µM

###

# EXPERIMENTAL SYSTEM: HIV-1 IN in the presence of LEDGF/p75 (Human immunodeficiency virus type 1 group M subtype B, UniProt P04585)
# Construct: made in house
# PROCEDURE SUMMARY: HTRF IN LEDGF/p75-dependent assay
# Assay type: biochemical
Give measured IC50 for each item. Keep answers brief.
Answers are plain numbers, in µM.

Example cases with answers are listed next.
{"MOLECULE SMILES": "O=c1[nH]c(-c2ccc(O)c(O)c2)nc2c1oc1ccccc12", "ENDPOINT VALUE": 5.35}
{"MOLECULE SMILES": "O=c1[nH]c(-c2ccc(O)c(O)c2)nc2ncccc12", "ENDPOINT VALUE": 0.69}
{"MOLECULE SMILES": "O=c1[nH]c(-c2ccc(O)c(O)c2)nc2cc(Cl)ccc12", "ENDPOINT VALUE": 7.2}

Attention now turns to another entry.
Any idea what its IC50 is? The molecule is Cc1ccc2c(=O)[nH]c(-c3ccc(O)c(O)c3)nc2c1
2.35

###

# EXPERIMENTAL SYSTEM: wt HIV-1 RT-associated RNase H (Human immunodeficiency virus type 1 group M subtype B, UniProt P04585)
# Construct: dynamics at the p66/p51 HIV-1 RT-RNase H dimer interface; made in house
# PROCEDURE SUMMARY: RNase H inhibitor analysis, wild type RT (fluorescent RNA/DNA hybrid)
# Assay type: biochemical
# CONDITION: wild type RT
ASSAY ENDPOINT: log10(IC50) (log10 of the value in µM)
Lab note - IC50 converted to log10 from values in µM.

{"MOLECULE": "O=c1[nH]c(-c2ccc(O)c(O)c2)nc2ccc(-c3ccccc3)cc12", "ENDPOINT VALUE": -0.43}
{"MOLECULE": "COc1cc2nc(-c3ccc(O)c(O)c3)[nH]c(=O)c2cc1OC", "ENDPOINT VALUE": -0.14}

The following molecules each have a reported value; give each one's log10(IC50).
1. O=c1[nH]c(-c2ccc(O)c(O)c2)nc2cc3ccccc3cc12
2. O=c1[nH]c(-c2ccc(O)c(O)c2)nc2ccc(F)cc12

1. 0.04
2. -0.28

The following molecules each have a reported value; give each one's log10(IC50).
1. O=C1NC(c2ccc(O)c(O)c2)Nc2ccc(Cl)cc21 (stereo not drawn)
2. O=c1[nH]c(-c2ccc(O)c(O)c2)nc2cc(Cl)ccc12
3. Oc1ccc(-c2ccc3ccccc3c2)cc1O
4. O=c1[nH]c(-c2ccc(O)c(O)c2)nc2ccc(Cl)cc12
5. O=c1[nH]c(-c2ccc(O)c(O)c2)nc2ccc(Br)cc12

[-0.25, -0.37, -0.15, -0.51, -0.35]

###

Give measured IC50 for each item. Keep answers brief.
# EXPERIMENTAL SYSTEM: HIV-1 RT-associated RDDP (Human immunodeficiency virus type 1 group M subtype B, UniProt P04585)
# Construct: dynamics at the p66/p51 HIV-1 RT-RNase H dimer interface; made in house
# PROCEDURE SUMMARY: HIV-1 RNA-dependent DNA polymerase activity determination
# Type: biochemical
# CONDITION: wt RT, poly(A)-oligo(dT)

Example cases with answers are listed next.
{"MOLECULE SMILES": "O=c1[nH]c(-c2ccc(O)c(O)c2)nc2c1oc1ccccc12", "ASSAY ENDPOINT": "IC50", "ENDPOINT VALUE": "25.3 µM"}
{"MOLECULE SMILES": "Cc1ccc2nc(-c3ccc(O)c(O)c3)[nH]c(=O)c2c1", "ASSAY ENDPOINT": "IC50", "ENDPOINT VALUE": "> 100 µM"}
{"MOLECULE SMILES": "COc1ccc2nc(-c3ccc(O)c(O)c3)[nH]c(=O)c2c1", "ASSAY ENDPOINT": "IC50", "ENDPOINT VALUE": "57 µM"}
{"MOLECULE SMILES": "O=c1[nH]c(-c2ccc(O)c(O)c2)nc2ccc([N+](=O)[O-])cc12", "ASSAY ENDPOINT": "IC50", "ENDPOINT VALUE": "99 µM"}
{"MOLECULE SMILES": "O=c1[nH]c(-c2ccc(O)c(O)c2)nc2ccc(Cl)cc12", "ASSAY ENDPOINT": "IC50", "ENDPOINT VALUE": "30.5 µM"}

The following compounds each have a reported value; give each one's IC50.
1. O=c1[nH]c(-c2ccc(O)c(O)c2)nc2cc3ccccc3cc12
2. O=c1[nH]c(-c2ccc(O)c(O)c2)nc2ccc(Br)cc12
3. O=c1[nH]c(-c2ccc(O)c(O)c2)nc2ccc(I)cc12

1: 23.4 µM; 2: 46 µM; 3: 26.7 µM

Any idea what its IC50 is? The compound is O=c1[nH]c(-c2ccc(O)c(O)c2)nc2ccccc12
70 µM
